Molecular target: Voltage-dependent L-type calcium channel subunit alpha-1C (Rattus norvegicus)
Assay: CA+/TLATATG Eurofins-Panlabs selectivity data (BI)
Set-up: species or system Cavia porcellus; mode of action antagonist
Conditions: guinea pig, atrial tissue; compound concentration 10 uM; read-out: % Ctrl
metric name: activity at 10 µM (%)
Give just the number in %; leave the unit off.

Which activity at 10 µM is reported with Voltage-dependent L-type calcium channel subunit alpha-1C (Rattus norvegicus) for this entry: CCOCCn1cc(C(=O)Nc2ccc(-n3nc(-c4cccnc4)cc3C(F)(F)F)cn2)ccc1=O ?
25

----------
Molecular target: Voltage-dependent L-type calcium channel subunit alpha-1C (Rattus norvegicus, UniProt P22002)
Sequence (P22002 whole entry): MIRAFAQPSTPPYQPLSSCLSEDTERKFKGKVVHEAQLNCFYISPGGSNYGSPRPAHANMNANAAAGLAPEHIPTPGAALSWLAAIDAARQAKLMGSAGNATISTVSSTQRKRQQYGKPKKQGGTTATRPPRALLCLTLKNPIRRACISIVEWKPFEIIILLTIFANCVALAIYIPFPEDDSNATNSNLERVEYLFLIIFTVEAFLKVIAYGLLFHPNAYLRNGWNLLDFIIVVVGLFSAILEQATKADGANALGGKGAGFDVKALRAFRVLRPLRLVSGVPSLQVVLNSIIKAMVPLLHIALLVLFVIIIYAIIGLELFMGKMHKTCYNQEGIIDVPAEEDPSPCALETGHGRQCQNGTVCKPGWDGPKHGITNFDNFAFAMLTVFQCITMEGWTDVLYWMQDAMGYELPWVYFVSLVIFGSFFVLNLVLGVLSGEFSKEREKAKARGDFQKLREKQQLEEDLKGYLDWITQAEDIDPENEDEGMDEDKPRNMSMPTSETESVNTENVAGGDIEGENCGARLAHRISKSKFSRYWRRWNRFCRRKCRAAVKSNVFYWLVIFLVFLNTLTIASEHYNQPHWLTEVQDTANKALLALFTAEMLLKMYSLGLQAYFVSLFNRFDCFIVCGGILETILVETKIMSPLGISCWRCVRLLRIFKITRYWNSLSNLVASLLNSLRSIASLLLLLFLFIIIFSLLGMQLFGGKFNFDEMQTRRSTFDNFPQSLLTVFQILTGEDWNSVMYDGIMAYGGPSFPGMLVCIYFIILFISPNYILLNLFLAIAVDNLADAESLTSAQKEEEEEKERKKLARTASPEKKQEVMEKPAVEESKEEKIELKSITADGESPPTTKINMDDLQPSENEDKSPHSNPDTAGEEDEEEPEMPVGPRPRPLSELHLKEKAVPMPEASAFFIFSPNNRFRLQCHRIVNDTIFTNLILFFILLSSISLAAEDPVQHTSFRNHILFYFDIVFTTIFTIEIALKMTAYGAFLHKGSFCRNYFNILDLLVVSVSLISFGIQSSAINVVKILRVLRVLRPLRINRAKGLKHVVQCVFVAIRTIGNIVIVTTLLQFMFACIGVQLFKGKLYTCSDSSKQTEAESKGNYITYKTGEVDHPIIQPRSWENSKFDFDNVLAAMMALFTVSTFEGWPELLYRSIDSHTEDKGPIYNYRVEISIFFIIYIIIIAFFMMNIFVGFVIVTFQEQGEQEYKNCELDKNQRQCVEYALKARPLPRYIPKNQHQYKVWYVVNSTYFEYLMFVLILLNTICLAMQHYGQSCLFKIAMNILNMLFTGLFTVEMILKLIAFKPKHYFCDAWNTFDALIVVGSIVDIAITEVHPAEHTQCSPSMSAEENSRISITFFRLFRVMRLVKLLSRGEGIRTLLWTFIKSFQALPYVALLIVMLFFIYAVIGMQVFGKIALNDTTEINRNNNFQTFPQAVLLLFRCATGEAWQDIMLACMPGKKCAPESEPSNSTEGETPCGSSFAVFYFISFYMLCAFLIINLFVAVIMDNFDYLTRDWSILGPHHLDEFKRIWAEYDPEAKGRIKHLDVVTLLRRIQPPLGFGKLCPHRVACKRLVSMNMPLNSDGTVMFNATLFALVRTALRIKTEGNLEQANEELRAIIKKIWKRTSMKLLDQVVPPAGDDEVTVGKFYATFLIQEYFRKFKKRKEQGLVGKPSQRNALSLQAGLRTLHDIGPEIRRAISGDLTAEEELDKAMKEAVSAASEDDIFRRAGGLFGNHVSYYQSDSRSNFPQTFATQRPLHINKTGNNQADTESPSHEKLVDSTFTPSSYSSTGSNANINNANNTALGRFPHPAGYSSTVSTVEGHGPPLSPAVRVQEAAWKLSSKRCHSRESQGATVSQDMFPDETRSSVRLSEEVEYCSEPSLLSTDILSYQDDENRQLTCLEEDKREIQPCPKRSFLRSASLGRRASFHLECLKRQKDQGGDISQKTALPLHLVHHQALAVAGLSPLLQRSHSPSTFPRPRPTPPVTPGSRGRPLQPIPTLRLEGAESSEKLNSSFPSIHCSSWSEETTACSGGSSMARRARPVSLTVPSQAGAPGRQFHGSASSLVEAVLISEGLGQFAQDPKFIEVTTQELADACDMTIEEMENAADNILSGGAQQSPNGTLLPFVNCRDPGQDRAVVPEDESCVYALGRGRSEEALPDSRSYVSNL
Test: CA+/TLATATG Eurofins-Panlabs selectivity data (BI)
Design: species or system Cavia porcellus; mode of action antagonist
Conditions: guinea pig, atrial tissue; compound concentration 1 uM; read-out: % Ctrl
metric name: activity at 1 µM

Which activity at 1 µM value is on record for CCOCCn1cc(C(=O)Nc2ccc(-n3nc(-c4cccnc4)cc3C(F)(F)F)cn2)ccc1=O ?
86% (not active)
